- Test system: acyl coenzyme-A:cholesterol-O-acyl transferase (ACAT;EC 2.3.1.26)
- test name: In vitro ACAT inhibition in rat liver microsomes incubated with radiolabelled oleoyl-CoA
- Type: biochemical
- test settings: concentration 0.5 »g/m1, microsomes from livers of rats fed 0.5%w/w cholesterol and 0.25%w/w cholic acid for 7 days
parameter measured: In-vitro % Inhibition (%)
Answers are plain numbers, in %.

Each of the following entries comes with a recorded value; kindly state In-vitro % Inhibition for each.
1. Cl.Cl.c1ccc(-c2nc(SCCCSc3nc(-c4ccccn4)c(-c4ccccn4)[nH]3)[nH]c2-c2ccccc2)cc1
2. c1ccc(-c2nc(SCCCCCCCCCSc3nc(-c4ccccc4)c(-c4ccccc4)[nH]3)[nH]c2-c2ccccc2)cc1
3. Cn1ccnc1S(=O)(=O)CCCSc1nc(-c2ccccc2)c(-c2ccccc2)[nH]1
4. Cn1ccnc1SCCCCCCSc1nc(-c2ccccc2)c(-c2ccccc2)[nH]1

Response:
[77, 77, 90, 95]

* * *

- System: plasma cholesterol level
- test name: In vivo inhibition of the increase in plasma cholesterol level in cholesterol/cholic acid-fed rats
- test settings: Rattus norvegicus, feed or water, 72 h, dose 0.03 %w/w in diet; increase in plasma cholesterol level measured after 3 days, relative to control animals on cholesterol supplemented diet; read-out: In-vivo % Reduction
parameter measured: inhibition in vivo at 0.03 % strength (%)
Numbers only, in %.

Recorded inhibition in vivo at 0.03 % strength, per entry:
1. c1ccc(-c2nc(SCCCSc3ccncc3)[nH]c2-c2ccccc2)cc1 [Compound B] :: 91
2. c1ccc(-c2nc(SCCCSc3nc(-c4ccccc4)c(-c4ccccc4)[nH]3)[nH]c2-c2ccccc2)cc1 [F] :: 72
3. Cn1ccnc1SCCCCSc1nc(-c2ccccc2)c(-c2ccccc2)[nH]1 [N] :: 98
4. Cn1ccnc1S(=O)(=O)CCCSc1nc(-c2ccccc2)c(-c2ccccc2)[nH]1 [Compound H] :: 108

Switching to the query record.
Query: Read the entry c1ccc(-c2nc(SCCCSc3ncccn3)[nH]c2-c2ccccc2)cc1 [A] and write its reported inhibition in vivo at 0.03 % strength.
Response: 7

* * *

- Test system: acyl coenzyme-A:cholesterol-O-acyl transferase (ACAT;EC 2.3.1.26)
- test name: In vitro ACAT inhibition in rat liver microsomes incubated with radiolabelled oleoyl-CoA
- Assay type: biochemical
- test settings: concentration 0.5 »g/m1, microsomes from livers of rats fed 0.5%w/w cholesterol and 0.25%w/w cholic acid for 7 days
For each entry below, report its In-vitro % Inhibition value.
Numbers only, in %.

1. C(=C\CSc1nc(-c2ccccc2)c(-c2ccccc2)[nH]1)/CSc1nc(-c2ccccc2)c(-c2ccccc2)[nH]1 :: 98
2. Cn1ccnc1SCCCSc1nc(-c2ccccc2)c(-c2ccccc2)[nH]1 :: 93
3. Cn1ccnc1SCCCCCCCCCSc1nc(-c2ccccc2)c(-c2ccccc2)[nH]1 :: 91

Please look at the items below and tell me In-vitro % Inhibition for each one, in order.
1. c1ccc(-c2nc(SCCCCSc3nc(-c4ccccc4)c(-c4ccccc4)[nH]3)[nH]c2-c2ccccc2)cc1
2. Cc1cc(C)nc(SCCCSc2nc(-c3ccccc3)c(-c3ccccc3)[nH]2)n1
3. c1ccc(-c2nc(SCCCSc3ccncc3)[nH]c2-c2ccccc2)cc1
4. Cn1nnnc1SCCCSc1nc(-c2ccccc2)c(-c2ccccc2)[nH]1

Response:
[97, 80, 90, 84]

Count: 2. Required value per item: In-vitro % Inhibition.
1. Cn1nnnc1S(=O)(=O)CCCSc1nc(-c2ccccc2)c(-c2ccccc2)[nH]1
2. Cn1cnnc1SCCCSc1nc(-c2ccccc2)c(-c2ccccc2)[nH]1

Response:
[19, 84]

* * *

- Test system: acyl coenzyme-A:cholesterol-O-acyl transferase (ACAT;EC 2.3.1.26)
- test name: In vitro ACAT inhibition in rat liver microsomes incubated with radiolabelled oleoyl-CoA
- Type: biochemical
- test settings: concentration 0.5 »g/m1, microsomes from livers of rats fed 0.5%w/w cholesterol and 0.25%w/w cholic acid for 7 days
parameter measured: In-vitro % Inhibition
Just so you know, I need the unit written after the number.

1. c1ccc(-c2nc(SCCCSc3ncc[nH]3)[nH]c2-c2ccccc2)cc1 :: 95%
2. Cn1ccnc1SCCCCSc1nc(-c2ccccc2)c(-c2ccccc2)[nH]1 :: 94%
3. c1ccc(-c2nc(SCCCSc3ncccn3)[nH]c2-c2ccccc2)cc1 :: 88%

Now, please, on to the next compound.
Query: Name the recorded In-vitro % Inhibition of the compound listed here: Cn1ccnc1S(=O)(=O)CCCCS(=O)(=O)c1nc(-c2ccccc2)c(-c2ccccc2)[nH]1
Response: 23%
